System: Malme-3M
Test details: NCI tumour cell line growth inhibition, 48 h
Active and inactive are the calls of the source. No stated cut-off is given here; in the data, active = GI50 up to about 1.1 µM and inactive = higher.
Provide the reported GI50 of each item.

Q: Which value of GI50 has been reported for C=CC(Br)(CBr)CCC1OC1(C)C (stereo unspecified) in the records?
Ans: 23.5 µM (inactive)

Q: Repeat with `O=C1c2ccccc2C(=O)N1n1c(Cc2ccc(Cl)cc2)n[nH]c1=O`
Ans: > 100 µM (inactive)

Q: Repeat with O=C1CC=C2C3CC4N(CCC45c4ccccc4N1C25)C/C3=C\CO (stereo unspecified)
Ans: > 100 µM (inactive)

Q: Repeat with O=C(CCN1CCN(c2ccccc2)CC1)N1CCc2c([nH]c3ccccc23)C1c1cccnc1 (stereo unspecified)
Ans: 19.1 µM (inactive)

Q: Repeat with `Cc1ccc(Nc2c(C#N)[n+]([O-])c3cc(Cl)ccc3[n+]2[O-])cc1`
Ans: 79.3 µM (inactive)

Q: Repeat with `NC(=S)N1N=C2CCCCCC[C@@H]2[C@H]1c1ccccc1`
Ans: 59.3 µM (inactive)

Q: Repeat with `C/C(=C\c1ccc(Cl)c(Cl)c1)[N+](=O)[O-]`
Ans: 2.08 µM (inactive)

Q: Repeat with N#C/C(=C1\OC(=N)C(c2ccc(Cl)cc2Cl)C1=O)c1ccc(Cl)cc1Cl (stereo unspecified)
Ans: > 100 µM (inactive)

Q: Repeat with `C=CCOc1cc(NC(=S)c2ccoc2C)ccc1OC`
Ans: > 100 µM (inactive)

Q: Repeat with `Cc1csc(/N=C(/NCCN2CCOCC2)Nc2nc(C)cs2)n1`
Ans: > 100 µM (inactive)

Q: Repeat with Cc1nnc2n1-c1ccccc1C(=S)N1CSCC21 (stereo unspecified)
Ans: > 100 µM (inactive)

====

System: UACC-62
Test details: NCI tumour cell line growth inhibition, 48 h
The source made the active and inactive calls. Cut-off read from the data, not from the text of the source: active = GI50 up to about 1.1 µM and inactive = higher.
Provide the reported GI50 of each item.

Q: Which value of GI50 has been reported for `COc1cc(C=C2C(=O)OC(C)(C)OC2=O)cc(OC)c1OC` in the records?
Ans: > 100 µM (inactive)

Q: Repeat with `Cc1nc2c(sc3nc4ccccc4n32)c(=O)[nH]1`
Ans: > 100 µM (inactive)

Q: Repeat with O=C1CC=C2C3CC4N(CCC45c4ccccc4N1C25)C/C3=C\CO (stereo unspecified)
Ans: > 100 µM (inactive)

Q: Repeat with O=C1C2CCCCC2C(=O)N1n1c(Cc2ccc(Cl)cc2)n[nH]c1=O (stereo unspecified)
Ans: > 100 µM (inactive)

Q: Repeat with COc1cc(/C=C2\C(=O)N(c3cccc(NC(C)=O)c3)C(c3ccccc3)S2(=O)=O)cc(OC)c1OC (stereo unspecified)
Ans: 80.9 µM (inactive)

Q: Repeat with `FC(F)(F)c1ccc(Cc2nc3cc4ccccc4cc3[nH]2)cc1`
Ans: > 100 µM (inactive)

Q: Repeat with Cc1nnc2n1-c1ccccc1C(=S)N1CSCC21 (stereo unspecified)
Ans: > 100 µM (inactive)

Q: Repeat with Cc1ccccc1N(CCC#N)C1=NN(C(=O)CC(=O)Nc2ccccc2)C(c2ccccc2)C1 (stereo unspecified)
Ans: > 100 µM (inactive)

Q: Repeat with `O=c1[nH]c(Br)nc2[nH]nnc12`
Ans: 15.9 µM (inactive)

Q: Repeat with N#C/C(=C1\OC(=N)C(c2ccc(Cl)cc2Cl)C1=O)c1ccc(Cl)cc1Cl (stereo unspecified)
Ans: > 100 µM (inactive)

Q: Repeat with C/C=C1/CN2CCC34c5ccccc5N(C)C23C2CC1C4(C(=O)OC)C(OC(C)=O)O2 (stereo unspecified)
Ans: > 100 µM (inactive)

Q: Repeat with `C=CCNC(=S)NNC(=O)c1c(C)nc2sccn12`
Ans: > 100 µM (inactive)

Q: Repeat with CC1CC/C(=C\c2ccc(Cl)cc2)C(=O)/C1=C\c1ccc(Cl)cc1 (stereo unspecified)
Ans: 25.4 µM (inactive)

Q: Repeat with Cc1cc(Cl)ccc1NC(=O)C1C(=O)N(c2ccc(Cl)cc2C)C(=O)/C1=N\NC(N)=S (stereo unspecified)
Ans: 31.6 µM (inactive)

Q: Repeat with `COc1ccc2nc3c([N+](=O)[O-])ccc4c3c(c2c1)N=CN4CCN(C)C`
Ans: 8.71 µM (inactive)

Q: Repeat with `CCOC(=O)c1c(N=C(S)Nc2ccccc2)sc2c1CCN(C)C2`
Ans: > 100 µM (inactive)

Q: Repeat with `CC1(C)CC(=O)C(=CNC(=S)c2ccccc2)C(=O)C1`
Ans: > 100 µM (inactive)

Q: Repeat with CCCCOC(=O)C1C(c2ccc(Cl)cc2)NC(c2ccc(Cl)cc2)C(C(=O)OCCCC)S1(=O)=O (stereo unspecified)
Ans: > 100 µM (inactive)

Q: Repeat with CC(C)(C)OC(=O)NCCC1SC2C=CC1C2 (stereo unspecified)
Ans: > 100 µM (inactive)

Q: Repeat with CCOC(=O)c1cc(C2CCN(Cc3ccccc3)C2=S)c(C(=O)C=[N+]=[N-])[nH]1 (stereo unspecified)
Ans: 18.3 µM (inactive)

Q: Repeat with `COC(=NC(C)C)NC(C)C`
Ans: > 100 µM (inactive)

Q: Repeat with CC(=O)Nc1ccc2c3c(cc(O)c2c1)N(C(=O)CCCCC(=O)Nc1ccc2c4c(cc(O)c2c1)N(C(=O)OC(C)(C)C)CC4CCl)CC3CCl (stereo unspecified)
Ans: 1.54 µM (inactive)

Q: Repeat with `N#Cc1c(C#N)c(-c2ccccc2)n(-c2ccccc2)c1N`
Ans: 69.5 µM (inactive)

Q: Repeat with `COc1ccc(Cl)cc1NC(=O)O/N=C(\Cl)C(C)C`
Ans: 12.9 µM (inactive)

Q: Repeat with CC1=N[C@](C)(C2CC3C=CC2C3=O)COC1=O (stereo partly specified)
Ans: > 100 µM (inactive)

Q: Repeat with C=CC(C)C1(CCCOCc2ccccc2)C(=S)N2CCC3(CC24CCCC14)OCCO3 (stereo unspecified)
Ans: > 100 µM (inactive)

Q: Repeat with `COc1ccc(/C=C2\C[C@H]3[C@@H]4CCC5=C/C(=N/O)CC[C@]5(C)[C@H]4CC[C@]3(C)\C2=N\O)cc1`
Ans: 14.5 µM (inactive)

Q: Repeat with `N#C/C(=C1/Sc2c(nc[nH]c2=O)N1c1ccccc1)c1nc2ccccc2[nH]1`
Ans: > 100 µM (inactive)

Q: Repeat with `Cn1c(=O)nc2n(CCO)ccnc-2c1=O`
Ans: > 100 µM (inactive)

Q: Repeat with `CCOCCOCCOCc1nc(C#N)c(N)o1`
Ans: > 100 µM (inactive)

Q: Repeat with `COc1cc(/C=C2\CCC/C(=C\c3cc(OC)c(O)c(OC)c3)C2=O)cc(OC)c1O`
Ans: 1.38 µM (inactive)

Q: Repeat with COc1ccc(NC(=O)CC(=O)N2N=C(N(CCC#N)c3ccccc3Cl)CC2c2ccccc2)cc1 (stereo unspecified)
Ans: > 100 µM (inactive)

Q: Repeat with C[C@H](CC[C@@H](O)C(C)(C)O)[C@H]1CC[C@@]2(C)[C@@H]3CC=C4[C@@H](CC[C@H](OC5OC(CO)C(O)C(O)C5O)C4(C)C)[C@]3(C)C(=O)C[C@]12C (stereo partly specified)
Ans: 58.1 µM (inactive)

Q: Repeat with `Cc1csc(/N=C(/NCCN2CCOCC2)Nc2nc(C)cs2)n1`
Ans: > 100 µM (inactive)

Q: Repeat with `C[C@H](CCC(=O)O)[C@H]1CC[C@H]2[C@@H]3[C@@H](O)C[C@@H]4C[C@H](O)CC[C@]4(C)[C@H]3CC[C@]12C`
Ans: 76.2 µM (inactive)

Q: Repeat with `N=c1c2ccccc2nc2oc3ccc(Cl)cc3n12`
Ans: 37.7 µM (inactive)

Q: Repeat with CC(=O)Nc1ccc(C(=O)NN2C(=O)C(Cl)C2c2ccccc2O)cc1 (stereo unspecified)
Ans: 37.2 µM (inactive)

Q: Repeat with `COC(=O)CCCc1ccc2c(c1)CC1(C2)Cc2cc3c(cc2C1)CCCC3`
Ans: 21.1 µM (inactive)

Q: Repeat with `O=C1C(Cl)=C(NCCOCCO)C(=O)c2c(O)ccc(O)c21`
Ans: 3.24 µM (inactive)

Q: Repeat with `CCC(=O)CC(=O)CCC(=O)Nc1cc(C)ccc1C`
Ans: > 100 µM (inactive)

Q: Repeat with `N#CCc1c(F)c(F)c(F)c(F)c1F`
Ans: > 100 µM (inactive)

====

Tested on: NCI-H460
Test details: NCI tumour cell line growth inhibition, 48 h
Activity calls are given as the source filed them. Rule as the data show it: active = GI50 up to about 1.1 µM and inactive = higher.
Respond with a class label; see Y for active, N for inactive

Q: Per the records of this test, what outcome belongs to `CCN(CCCl)c1cc(CN(C)C)cc(NC(=O)c2ccc(C(=O)Nc3cccc(N(CCCl)NN)c3)cc2)c1` ?
Ans: Y

Q: Repeat with CCCCCC(O)[C@H]1C(=O)C[C@@H](O[Si](C)(C)C(C)(C)C)[C@@H]1/C=C/CCOCc1ccccc1 (stereo not given in full)
Ans: N

Q: Repeat with N=C1OC(c2ccc3c(c2)OCO3)C(NNS(=O)(=O)c2ccccc2)=C1O (stereo not given)
Ans: N

Q: Repeat with `C/C(Nc1ccc(Cl)cc1Cl)=C1/CCOC1=O`
Ans: N

Q: Repeat with CC12CCC([C@H](N3CCOCC3)/C1=N\OCCN1CCCC1)C2(C)C (stereo not given in full)
Ans: N

Where these numbers come from: ChEMBL document CHEMBL1201862
